Data origin: patent US10221177B2

# test-target: human TRPA1 (Homo sapiens (Human))
# Sequence (O75762 whole entry): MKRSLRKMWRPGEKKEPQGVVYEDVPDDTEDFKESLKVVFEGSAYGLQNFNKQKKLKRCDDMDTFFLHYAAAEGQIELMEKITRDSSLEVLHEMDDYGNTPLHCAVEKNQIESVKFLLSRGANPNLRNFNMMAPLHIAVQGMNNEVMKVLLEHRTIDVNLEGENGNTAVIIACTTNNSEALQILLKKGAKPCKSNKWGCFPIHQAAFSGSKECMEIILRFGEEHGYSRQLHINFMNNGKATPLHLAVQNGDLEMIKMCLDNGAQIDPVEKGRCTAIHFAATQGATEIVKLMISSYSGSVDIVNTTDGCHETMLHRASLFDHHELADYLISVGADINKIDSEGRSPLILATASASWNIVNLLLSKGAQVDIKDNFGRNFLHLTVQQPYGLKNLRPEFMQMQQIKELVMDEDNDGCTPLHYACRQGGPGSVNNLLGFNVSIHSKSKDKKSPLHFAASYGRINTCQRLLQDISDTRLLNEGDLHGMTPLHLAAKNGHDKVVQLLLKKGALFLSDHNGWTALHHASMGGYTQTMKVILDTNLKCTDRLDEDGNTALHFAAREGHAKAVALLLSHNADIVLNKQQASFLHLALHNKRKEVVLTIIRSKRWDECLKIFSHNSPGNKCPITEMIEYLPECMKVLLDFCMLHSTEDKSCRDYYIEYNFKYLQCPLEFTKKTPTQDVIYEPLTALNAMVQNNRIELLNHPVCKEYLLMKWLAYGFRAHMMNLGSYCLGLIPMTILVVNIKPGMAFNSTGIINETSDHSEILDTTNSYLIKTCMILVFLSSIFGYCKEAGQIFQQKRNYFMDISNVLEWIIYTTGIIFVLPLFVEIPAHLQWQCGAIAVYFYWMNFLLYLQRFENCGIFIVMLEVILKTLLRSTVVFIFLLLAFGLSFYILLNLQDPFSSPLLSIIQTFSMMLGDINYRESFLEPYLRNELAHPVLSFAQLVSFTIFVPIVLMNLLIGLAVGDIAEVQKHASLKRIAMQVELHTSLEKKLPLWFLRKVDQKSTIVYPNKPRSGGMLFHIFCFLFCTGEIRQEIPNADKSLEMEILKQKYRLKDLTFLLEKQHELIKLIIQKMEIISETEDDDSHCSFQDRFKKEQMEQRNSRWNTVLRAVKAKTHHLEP
# protocol-description: In vitro inhibition of human TRPA1, whole cell patch configuration
# condition-context: current activation 10 μM AITC, tested concentrations 320 pM to 3.2 μM, read-out: hTRPA1 IC50
reported-metric: IC50 (nM)
Give bare numbers, in nM.

Examples with their reported IC50 follow.
> print(dat)
                                    compound  reported.metric  reported.result
 1  CC(=O)Cn1c(=O)c2c(nc(C)n2CC(=O)Nc2cccc(-c3ccc(F)c(F)c3)n2)n(C)c1=O             IC50               45
 2  COCC(=O)Cn1c(=O)c2c(ncn2[C@@H](C)C(=O)Nc2csc(-c3ccc(N4CC5C(C4)C5(F)F)nc3)n2)n(C)c1=O (stereo partly drawn)             IC50                4
 3  CC(=O)Cn1c(=O)c2c(nc(C)n2CC(=O)Nc2cccc(-c3cnc(N4CCC[C@H]4C(F)(F)F)nc3)n2)n(C)c1=O             IC50                3
 4  Cc1noc(Cn2c(=O)c3c(ncn3CC(=O)Nc3csc(-c4cnc(C(F)(F)F)c(C)c4)n3)n(C)c2=O)n1             IC50                6
 5  CCC(=O)Cn1c(=O)c2c(ncn2[C@@H](C)C(=O)Nc2cncc(-c3cnc(N4CC5C(C4)C5(F)F)cn3)n2)n(C)c1=O (stereo partly drawn)             IC50                6
 6  CC(=O)Cn1c(=O)c2c(ncn2[C@@H](C)C(=O)Nc2csc(-c3cnc(C(F)(F)F)nc3)n2)n(C)c1=O             IC50               16
 7  CCC(=O)Cn1c(=O)c2c(ncn2[C@@H](C)C(=O)Nc2cccc(-c3cnc(N4CC5C(C4)C5(F)F)cn3)n2)n(C)c1=O (stereo partly drawn)             IC50                5
 8  CC(C(=O)Nc1ccnc(-c2cnc(N3CC4CC4C3)nc2)n1)n1cnc2c1c(=O)n(CC#N)c(=O)n2C (stereo not drawn)             IC50               10
 9  CCCC(=O)Cn1c(=O)c2c(ncn2[C@@H](C)C(=O)Nc2cccc(-c3cnc(C(F)(F)F)nc3)n2)n(C)c1=O             IC50               23
10  CCC(=O)Cn1c(=O)c2c(ncn2[C@@H](C)C(=O)Nc2csc(-c3cnc(C(F)(F)F)c(C)c3)n2)n(C)c1=O             IC50                2

Below are some compounds; for each one, tell me its IC50.
1. CC(=O)Cn1c(=O)c2c(ncn2[C@@H](C)C(=O)Nc2csc(-c3ccc(N4CC5CC5C4)nc3)n2)n(C)c1=O (stereo partly drawn)
2. Cc1noc(Cn2c(=O)c3c(ncn3CC(=O)Nc3csc(-c4cnc(C(F)(F)F)nc4)n3)n(C)c2=O)n1
3. CC(=O)Cn1c(=O)c2c(ncn2[C@@H](C)C(=O)Nc2cccc(-c3ccc(C(F)(F)F)nc3)n2)n(C)c1=O
4. C[C@@H](C(=O)Nc1cncc(-c2cnc(C(F)(F)F)nc2)n1)n1cnc2c1c(=O)n(CC#N)c(=O)n2C
5. CC(=O)Cn1c(=O)c2c(ncn2CC(=O)Nc2cccc(-c3ccc(F)c(F)c3)n2)n(C)c1=O
6. C[C@@H](C(=O)Nc1csc(-c2ccc(Cl)c(Cl)c2)n1)n1cnc2c1c(=O)n(CC#N)c(=O)n2C
7. Cc1cc(-c2nc(NC(=O)Cn3cnc4c3c(=O)n(CC(F)(F)F)c(=O)n4C)cs2)cnc1C(F)(F)F
8. Cc1noc(Cn2c(=O)c3c(ncn3[C@@H](C)C(=O)Nc3csc(-c4cnc(C(F)(F)F)c(C)c4)n3)n(C)c2=O)n1

### Response
1. 2
2. 17
3. 21
4. 203
5. 42
6. 1
7. 219
8. 1

Below are some compounds; for each one, tell me its IC50.
1. CC(=O)Cn1c(=O)c2c(ncn2CC(=O)Nc2cccc(-c3cnc(C(F)(F)F)c(C)c3)n2)n(C)c1=O
2. Cc1cc(-c2cncc(NC(=O)[C@H](C)n3cnc4c3c(=O)n(Cc3ccon3)c(=O)n4C)n2)cnc1C(F)(F)F
3. CC(=O)Cn1c(=O)c2c(ncn2CC(=O)Nc2csc(-c3cnc(C(F)(F)F)c(C)c3)n2)n(C)c1=O
4. Cc1cc(Cn2c(=O)c3c(ncn3[C@@H](C)C(=O)Nc3csc(-c4cnc(C)c(C(F)(F)F)c4)n3)n(C)c2=O)no1
5. COCC(=O)Cn1c(=O)c2c(ncn2[C@@H](C)C(=O)Nc2cccc(-c3cnc(N4CC5C(C4)C5(F)F)cn3)n2)n(C)c1=O (stereo partly drawn)
6. Cc1cc(Cn2c(=O)c3c(ncn3CC(=O)Nc3cccc(-c4ccc(C(F)(F)F)nc4)n3)n(C)c2=O)no1
7. CCC(=O)Cn1c(=O)c2c(ncn2[C@@H](C)C(=O)Nc2ccnc(-c3cnc(N4CC5C(C4)C5(F)F)nc3)n2)n(C)c1=O (stereo partly drawn)

### Response
1: 22; 2: 13; 3: 16; 4: 1; 5: 7; 6: 25; 7: 5

Below are some compounds; for each one, tell me its IC50.
1. Cc1ncc(-c2cccc(NC(=O)Cn3cnc4c3c(=O)n(Cc3ccon3)c(=O)n4C)n2)cc1C(F)(F)F
2. Cc1noc(Cn2c(=O)c3c(ncn3[C@@H](C)C(=O)Nc3cncc(-c4cnc(C)c(C(F)(F)F)c4)n3)n(C)c2=O)n1

### Response
[3, 9]
